These measurements were taken from ChEMBL document CHEMBL4342488.

target: Phosphatidylinositol 5-phosphate 4-kinase type-2 beta (Homo sapiens, UniProt P78356); test: Inhibition of PI5P4Kbeta (unknown origin) incubated for 15 mins in presence of ATP by ADP-Glo assay; conditions: read-out: IC50
Sequence (P78356 whole entry): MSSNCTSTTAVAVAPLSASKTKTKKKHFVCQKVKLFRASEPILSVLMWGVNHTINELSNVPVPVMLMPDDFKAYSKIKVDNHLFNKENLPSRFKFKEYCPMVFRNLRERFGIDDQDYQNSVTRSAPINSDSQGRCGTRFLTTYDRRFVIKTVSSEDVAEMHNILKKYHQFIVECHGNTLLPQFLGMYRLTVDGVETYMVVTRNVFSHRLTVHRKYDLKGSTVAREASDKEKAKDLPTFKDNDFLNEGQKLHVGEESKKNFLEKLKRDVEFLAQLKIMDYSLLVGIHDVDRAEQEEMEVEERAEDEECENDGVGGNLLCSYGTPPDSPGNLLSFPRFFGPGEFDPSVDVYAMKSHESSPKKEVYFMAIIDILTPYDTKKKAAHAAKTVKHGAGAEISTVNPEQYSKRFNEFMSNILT
experimental readout: pIC50
pIC50 is defined as minus the log10 of a concentration measured in mol/L.

Ask: # returns recorded pIC50 (system: Phosphatidylinositol 5-phosphate 4-kinase type-2 beta (Homo sapiens, UniProt P78356)) for `Cc1ccc(-n2ccc3c(Nc4cccc(NC(=O)c5ccc(NC(=O)/C=C/CN(C)C)cc5)c4)ncnc32)cc1`
Reply: 5.00

----------
Target: Phosphatidylinositol 5-phosphate 4-kinase type-2 alpha (Homo sapiens, UniProt P48426)
Sequence (P48426 whole entry): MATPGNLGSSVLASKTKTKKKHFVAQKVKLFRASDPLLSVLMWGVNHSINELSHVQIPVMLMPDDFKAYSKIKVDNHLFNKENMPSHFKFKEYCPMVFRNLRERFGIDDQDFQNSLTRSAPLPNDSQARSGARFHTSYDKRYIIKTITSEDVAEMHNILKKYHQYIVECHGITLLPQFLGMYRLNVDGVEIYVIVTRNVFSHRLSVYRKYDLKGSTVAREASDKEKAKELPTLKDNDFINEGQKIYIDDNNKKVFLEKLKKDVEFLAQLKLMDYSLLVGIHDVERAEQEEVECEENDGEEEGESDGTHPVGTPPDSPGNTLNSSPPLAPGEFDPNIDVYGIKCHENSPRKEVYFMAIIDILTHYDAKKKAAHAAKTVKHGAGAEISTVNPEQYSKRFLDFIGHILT
Assay: Inhibition of PI5P4Kalpha (unknown origin) incubated for 15 mins in presence of ATP by ADP-Glo assay
Conditions: read-out: IC50
experimental readout: IC50
Kindly format the answer as number then unit.

Ask: I would be grateful if you could share the reported IC50 for `Cc1ccc(-n2ccc3c(Nc4cccc(NC(=O)c5ccc(NC(=O)/C=C/CN(C)C)cc5)c4)ncnc32)cc1` .
Reply: 1340 nM
